Target: CCXCKR2 receptor (Homo sapiens, UniProt P25106)
Construct: expressed in transfected cells; host or cells: MDA-MB-435S transfected with pcDNA3.1(+)-hRDC1 and/or MCF-7 (endogenous receptor)
Sequence (P25106 whole entry): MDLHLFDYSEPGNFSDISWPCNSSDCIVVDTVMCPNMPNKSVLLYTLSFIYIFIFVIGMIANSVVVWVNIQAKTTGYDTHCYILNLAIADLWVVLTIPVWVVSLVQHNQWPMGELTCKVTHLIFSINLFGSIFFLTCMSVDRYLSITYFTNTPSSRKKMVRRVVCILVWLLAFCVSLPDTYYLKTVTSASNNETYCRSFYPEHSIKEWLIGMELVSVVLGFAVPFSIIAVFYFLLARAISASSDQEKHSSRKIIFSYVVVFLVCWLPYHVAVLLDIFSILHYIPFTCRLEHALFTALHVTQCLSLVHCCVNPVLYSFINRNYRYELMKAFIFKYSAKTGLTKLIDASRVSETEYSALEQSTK
Test: Displacement of 125I-labeled SDF-1 from the CCXCKR2 receptor on MCF-7 and/or CCXCKR2-transfected MDA-MB-435S cells (radioligand binding, filtration)
Details: 125I SDF-1, 3 hr at 4° C., MCF-7 and/or MDA-MB-435S cells; read-out: Activity (concentration displacing at least 50% of the SDF-1 from the CCXCKR2 receptor)
VALUE TYPE: IC50

QUERY SMILES	IC50
Cc1ccc(C(=O)c2cn(Cc3cccc(C(N)=O)n3)c3ccccc3c2=O)cc1C	500 to 20000 nM
Cc1ccc(C)c(C(=O)c2cn(Cc3cccc(Br)n3)c3ccccc3c2=O)c1	< 100 nM
Cc1cc(C(=O)c2cn(Cc3cccc(C)n3)c3ccccc3c2=O)ccn1	500 to 20000 nM
COc1ccc(C(=O)c2cn(Cc3cccc(Br)n3)c3ncccc3c2=O)cc1F	< 100 nM
Cc1ccc(C(=O)c2cn(Cc3cccc(Br)n3)c3ccc(F)cc3c2=O)cc1C	< 100 nM

Kindly note the recorded IC50 for `COc1ccc(C(=O)c2cn(Cc3cccc(Br)n3)c3ccc(C)nc3c2=O)cc1F` , which is 500 to 20000 nM
